Values were extracted from patent US7632819B1.

assay: MTT cytotoxicity assay, MPP+- and 6-OHDA-induced cytotoxicity; settings: rat
quantity.kind: cytotoxicity at 24 h, 100 μM

Look up cytotoxicity at 24 h, 100 μM: NCCc1cc(O)c(O)cc1O [6-OHDA, 6-hydroxydopamine, reference compound]
> 60%
